test system: NGAL (Homo sapiens)
Construct: purchased R&D Systems
Sequence (P80188 21-198): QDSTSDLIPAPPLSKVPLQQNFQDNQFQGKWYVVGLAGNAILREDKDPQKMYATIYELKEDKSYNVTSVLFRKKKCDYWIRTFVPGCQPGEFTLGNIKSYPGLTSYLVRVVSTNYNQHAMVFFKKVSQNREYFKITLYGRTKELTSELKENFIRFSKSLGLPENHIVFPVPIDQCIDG
assay comment: NGAL-induced IL6 secretion in human cardiac fibroblasts (ELISA)
Type: cell-based
run parameters: NGAL-induced IL6 secretion (NGAL 10 ng/ml), Control = 1.00 ± 0.03
In this scheme, each record receives a class according to its Activity; the ranges are low = under 0.8, medium = from 0.8 up to 0.9, high = 0.9 and over

These recorded examples may help you get a feel for the data.
| record smiles | cat |
| --- | --- |
| CCN1CCN(Cc2ccccc2CNS(=O)(=O)c2cccc(C(C)=O)c2)CC1 | high |
| Cc1cc(C)n2cc(CSc3nc4ccccc4[nH]3)nc2n1 | high |
| O=C(Nc1nc2cc(F)c(F)cc2s1)c1cn2cccnc2n1 | medium |
| Clc1c(SCc2nc3ccccc3s2)nc2ncccn12 | medium |
| CC(=O)c1cccc(S(=O)(=O)NCc2ccccc2Cn2cccn2)c1 | medium |

Request: In plain terms, what class is "CC(=O)c1ccc(S(=O)(=O)Nc2ccccc2-n2cccn2)cc1" ?
Result: low

Request: In plain terms, what class is "CC(=O)c1cccc(S(=O)(=O)NCc2ccccc2-c2ccc(CN(C)C)cc2)c1" ?
Result: low

Request: In plain terms, what class is "CC(=O)c1cccc(S(=O)(=O)NCc2ccccc2-c2ccsc2)c1" ?
Result: high

###

assay comment: Bi-CaCo2 permeability assay
Format: in vitro ADME, human
run parameters: human, Caco-2; efflux ratio
readout label: efflux ratio
Could you keep your reply to the number by itself?

Request: Fill in reported efflux ratio for this entry: "CCS(=O)(=O)c1ccc2oc(SCc3cn4c(C)cc(C)nc4n3)nc2c1"
Result: 2.11

###

test system: CYP3A4 (Homo sapiens, UniProt P08684)
Construct: purchased Thermo Fisher Scientific
Sequence (P08684 whole entry): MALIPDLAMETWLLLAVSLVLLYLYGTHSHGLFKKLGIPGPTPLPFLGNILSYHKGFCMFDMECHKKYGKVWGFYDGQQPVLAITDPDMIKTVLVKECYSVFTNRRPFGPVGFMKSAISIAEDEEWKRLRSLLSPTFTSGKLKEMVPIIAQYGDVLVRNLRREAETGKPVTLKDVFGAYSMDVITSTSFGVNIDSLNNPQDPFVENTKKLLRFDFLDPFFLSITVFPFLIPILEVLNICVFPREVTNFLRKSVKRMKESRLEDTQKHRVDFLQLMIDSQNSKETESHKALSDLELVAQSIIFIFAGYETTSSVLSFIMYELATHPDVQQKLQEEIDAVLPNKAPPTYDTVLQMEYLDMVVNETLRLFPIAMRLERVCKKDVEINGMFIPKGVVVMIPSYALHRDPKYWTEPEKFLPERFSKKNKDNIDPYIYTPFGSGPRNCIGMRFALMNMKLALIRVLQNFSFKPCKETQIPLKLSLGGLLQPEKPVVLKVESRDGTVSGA
assay comment: CYP3A4 inhibition assay (Vivid CYP3A4 assay)
Type: in vitro ADME
run parameters: human, recombinant CYP3A4 (Vivid CYP3A4 assay kit); 100 = no inhibition; read-out: CyP 3A4 Inhibition % (100 = no inhibition)
This section presents compounds with their documented Activity values.

| record smiles | Activity |
| --- | --- |
| CCS(=O)(=O)c1ccc2oc(SCc3cn4c(C)cc(C)nc4n3)nc2c1 | 68.1% |

Now look at this entry.
Request: Fill in reported Activity for this entry: "CC(=O)c1cccc(S(=O)(=O)NCc2ccccc2-n2cccn2)c1"
Result: 72.2%
